Data origin: PubChem BioAssay

- assay-overview: binders of probe aFST on microarray, primary screen, stem cell growth factor project, biochemical, small-molecule microarray, fluorescence 635/667 (AID 1086);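 also: score merges 667 nm fluorescence with signal-to-noise of each printed compound spot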
- protocol-conditions: higher = more signal
Classify by measured composite z-score: Met if it is equal to or exceeds 0.2, Not met if it is smaller.

Q. Evaluate Cc1ccc(S[C@]2(C(=O)NCc3ccccc3)CC(=O)N(Cc3ccccc3Cl)[C@@H]2c2ccc(CO)cc2I)cc1 : composite z-score at minimum 0.2?
A. Not met

---

- Test system: Fibrinogen (Alexa647-labelled)
- assay-overview: fibrinogen binders on compound microarrays, profiling panel, artefact control for SMM control-protein annotation, biochemical, small-molecule microarray, 635/667 nm fluorescence (AID 1131);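 also: z-score merges 667 nm fluorescence with per-spot signal-to-noise over triplicate slides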
- protocol-conditions: fibrinogen-A647 binding fluorescence, higher = more signal
measurement-kind: composite z-score
Answers are plain numbers.

Here is how some compounds turned out for composite z-score.
COCCCNC(=O)[C@@]1(CCC(=O)OC(C)(C)C)N=C(c2ccc(OCCCO)cc2)O[C@H]1c1ccccc1CN=[N+]=[N-]: 1.01
CCCCC=C[C@@H](NC(=O)c1cccs1)c1ccccc1: 0.983
CCOC(=O)C[C@H]1[C@H](OC(=O)Cc2ccc3c(c2)OCO3)[C@@H](NC(=O)C2CCCCC2)c2cc(OCCCO)ccc2N1C(=O)Cc1ccc(OC)cc1: 0.66
COC(=O)[C@@]1(Cc2ccccc2N=[N+]=[N-])COC(c2ccc(OCCCO)cc2)=N1: 0.492

For every record below, what is its composite z-score?
1. Cc1ccc(S[C@]2(C(=O)NCC(C)C)CC(=O)N(Cc3ccccc3)[C@@H]2c2ccc(CO)cc2I)cc1
2. CCOC(=O)[C@H]1C[C@H]2O[C@@]23C[C@H]1C(=O)N1CCCC1[C@@H]3O[Si](C)(C)C(C)(C)C (some centres not stated)

A.
[0.312, -0.466]

Per the record, COc1cc2c(cc1OC)CN(C(=O)[C@@H]1[C@H]3C(=O)O[C@H](c4ccccc4)[C@H](c4ccccc4)N3[C@H](c3ccccc3OCCO)[C@@]13C(=O)Nc1ccc(C#CCNC(N)=O)cc13)CC2 has composite z-score of 0.933
